Listed here: items and their measured CDK7/CDK12.
Target: Human CDK12 wt/CycK (Homo sapiens (Human))
Test: Radiometric protein kinase assay (33PanQinase Activity Assay), CDK12
Assay type: biochemical
Settings: Table 1; ratio greater than 1 indicated selectivity for CDK12
ASSAY ENDPOINT: CDK7/CDK12

{"COMPOUND": "CC(C)c1cnn2c(NCc3cnc4ccccc4c3)cc(NC[C@H]3CCNC[C@@H]3O)nc12", "ASSAY SYSTEM": "Human CDK12 wt/CycK (Homo sapiens (Human))", "OBSERVED RESULT": 0.2}
{"COMPOUND": "CCc1cnn2c(NCc3cn4c(C)cccc4n3)cc(NC[C@H]3CCNC[C@@H]3O)nc12", "ASSAY SYSTEM": "Human CDK12 wt/CycK (Homo sapiens (Human))", "OBSERVED RESULT": 38.3}
{"COMPOUND": "CC(C)c1cnn2c(NCc3cnc4ccccn34)cc(NC[C@H]3CCNC[C@@H]3O)nc12", "ASSAY SYSTEM": "Human CDK12 wt/CycK (Homo sapiens (Human))", "OBSERVED RESULT": 1.9}
{"COMPOUND": "Cc1cccc2nc(CNc3cc(NC[C@H]4CCNC[C@@H]4O)nc4c(C(C)C)cnn34)cn12", "ASSAY SYSTEM": "Human CDK12 wt/CycK (Homo sapiens (Human))", "OBSERVED RESULT": 6.0}
{"COMPOUND": "Cc1csc2nc(CNc3cc(NC[C@H]4CCNC[C@@H]4O)nc4c(C(C)C)cnn34)cn12", "ASSAY SYSTEM": "Human CDK12 wt/CycK (Homo sapiens (Human))", "OBSERVED RESULT": 7.90}
{"COMPOUND": "Cc1cc(C)n2cc(CNc3cc(NC[C@H]4CCNC[C@@H]4O)nc4c(C(C)C)cnn34)nc2n1", "ASSAY SYSTEM": "Human CDK12 wt/CycK (Homo sapiens (Human))", "OBSERVED RESULT": 23}
{"COMPOUND": "CC(C)c1cnn2c(NCc3cn4cc(Cl)ccc4n3)cc(NC[C@H]3CCNC[C@@H]3O)nc12", "ASSAY SYSTEM": "Human CDK12 wt/CycK (Homo sapiens (Human))", "OBSERVED RESULT": 8.2}
{"COMPOUND": "Cc1cn2cc(CNc3cc(NC[C@H]4CCNC[C@@H]4O)nc4c(C5CC5)cnn34)nc2cc1C(F)(F)F", "ASSAY SYSTEM": "Human CDK12 wt/CycK (Homo sapiens (Human))", "OBSERVED RESULT": 31.9}
{"COMPOUND": "CC(C)c1cnn2c(NC(C)c3cn4ccccc4n3)cc(NC[C@H]3CCNC[C@@H]3O)nc12 (stereo partly drawn)", "ASSAY SYSTEM": "Human CDK12 wt/CycK (Homo sapiens (Human))", "OBSERVED RESULT": 1.2}
{"COMPOUND": "O[C@H]1CNCC[C@@H]1CNc1cc(NCc2cn3c(C(F)(F)F)cccc3n2)n2ncc(C3CC3)c2n1", "ASSAY SYSTEM": "Human CDK12 wt/CycK (Homo sapiens (Human))", "OBSERVED RESULT": 3.1}
{"COMPOUND": "Cc1cc(C)n2cc(CNc3cc(NC[C@H]4CCNC[C@@H]4O)nc4c(C5CC5)cnn34)nc2c1", "ASSAY SYSTEM": "Human CDK12 wt/CycK (Homo sapiens (Human))", "OBSERVED RESULT": 19.1}
{"COMPOUND": "Cn1c(CNc2cc(NC[C@H]3CCNC[C@@H]3O)nc3c(C4CC4)cnn23)nc2cc(F)c(F)cc21", "ASSAY SYSTEM": "Human CDK12 wt/CycK (Homo sapiens (Human))", "OBSERVED RESULT": 4.0}
{"COMPOUND": "[2H]C([2H])(Nc1cc(NC[C@H]2CCNC[C@@H]2O)nc2c(C(C)C)cnn12)c1cn2ccccc2n1", "ASSAY SYSTEM": "Human CDK12 wt/CycK (Homo sapiens (Human))", "OBSERVED RESULT": 3.2}
{"COMPOUND": "O[C@H]1CNCC[C@@H]1CNc1cc(NCc2cn3ccc(-c4ccccc4)cc3n2)n2ncc(C3CC3)c2n1", "ASSAY SYSTEM": "Human CDK12 wt/CycK (Homo sapiens (Human))", "OBSERVED RESULT": 27.6}
{"COMPOUND": "Cc1cccn2cc(CNc3cc(NC[C@H]4CCNC[C@@H]4O)nc4c(C5CC5)cnn34)nc12", "ASSAY SYSTEM": "Human CDK12 wt/CycK (Homo sapiens (Human))", "OBSERVED RESULT": 3.8}

* * *

Biological target: Human CDK12 wt/CycK (Homo sapiens (Human), UniProt Q9NYV4)
Sequence (Q9NYV4 whole entry): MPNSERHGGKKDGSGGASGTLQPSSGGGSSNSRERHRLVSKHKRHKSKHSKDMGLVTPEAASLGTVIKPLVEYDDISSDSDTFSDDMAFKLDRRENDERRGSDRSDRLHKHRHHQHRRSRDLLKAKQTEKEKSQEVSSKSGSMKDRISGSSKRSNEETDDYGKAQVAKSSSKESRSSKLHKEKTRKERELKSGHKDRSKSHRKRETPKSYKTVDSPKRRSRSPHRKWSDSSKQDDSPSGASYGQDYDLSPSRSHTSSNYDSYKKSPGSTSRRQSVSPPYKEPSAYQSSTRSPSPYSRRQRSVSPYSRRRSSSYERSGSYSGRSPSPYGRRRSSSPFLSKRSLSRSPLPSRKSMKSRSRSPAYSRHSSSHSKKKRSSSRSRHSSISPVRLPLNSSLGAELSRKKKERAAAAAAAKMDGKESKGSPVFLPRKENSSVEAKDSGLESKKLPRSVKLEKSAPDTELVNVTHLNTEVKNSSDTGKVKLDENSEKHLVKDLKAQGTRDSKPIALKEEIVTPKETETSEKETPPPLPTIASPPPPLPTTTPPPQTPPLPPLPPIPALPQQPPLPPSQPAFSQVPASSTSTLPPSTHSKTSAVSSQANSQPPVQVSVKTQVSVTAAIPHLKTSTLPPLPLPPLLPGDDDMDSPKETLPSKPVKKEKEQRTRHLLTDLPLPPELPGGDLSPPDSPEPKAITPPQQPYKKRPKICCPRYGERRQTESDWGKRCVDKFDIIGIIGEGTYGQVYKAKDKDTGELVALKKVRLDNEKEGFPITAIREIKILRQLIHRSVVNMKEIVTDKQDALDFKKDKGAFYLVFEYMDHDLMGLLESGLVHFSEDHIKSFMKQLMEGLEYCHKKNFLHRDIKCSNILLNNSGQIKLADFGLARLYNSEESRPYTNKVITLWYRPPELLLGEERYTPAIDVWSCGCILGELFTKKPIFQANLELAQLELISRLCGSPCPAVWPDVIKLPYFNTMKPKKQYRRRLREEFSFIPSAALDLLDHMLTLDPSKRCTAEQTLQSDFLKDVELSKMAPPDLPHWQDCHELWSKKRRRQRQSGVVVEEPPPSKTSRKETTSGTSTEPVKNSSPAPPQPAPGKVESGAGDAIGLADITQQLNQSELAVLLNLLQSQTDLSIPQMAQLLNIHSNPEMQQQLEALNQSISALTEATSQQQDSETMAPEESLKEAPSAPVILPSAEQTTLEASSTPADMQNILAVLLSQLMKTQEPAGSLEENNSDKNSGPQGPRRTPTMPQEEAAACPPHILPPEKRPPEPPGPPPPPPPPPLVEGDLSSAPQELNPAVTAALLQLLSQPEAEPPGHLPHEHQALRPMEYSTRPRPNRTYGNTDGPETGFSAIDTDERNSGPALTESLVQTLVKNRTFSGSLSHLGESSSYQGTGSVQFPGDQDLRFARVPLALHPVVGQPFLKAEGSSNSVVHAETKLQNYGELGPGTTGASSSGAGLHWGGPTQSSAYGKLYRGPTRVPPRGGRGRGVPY
Sequence (O75909 whole entry partner): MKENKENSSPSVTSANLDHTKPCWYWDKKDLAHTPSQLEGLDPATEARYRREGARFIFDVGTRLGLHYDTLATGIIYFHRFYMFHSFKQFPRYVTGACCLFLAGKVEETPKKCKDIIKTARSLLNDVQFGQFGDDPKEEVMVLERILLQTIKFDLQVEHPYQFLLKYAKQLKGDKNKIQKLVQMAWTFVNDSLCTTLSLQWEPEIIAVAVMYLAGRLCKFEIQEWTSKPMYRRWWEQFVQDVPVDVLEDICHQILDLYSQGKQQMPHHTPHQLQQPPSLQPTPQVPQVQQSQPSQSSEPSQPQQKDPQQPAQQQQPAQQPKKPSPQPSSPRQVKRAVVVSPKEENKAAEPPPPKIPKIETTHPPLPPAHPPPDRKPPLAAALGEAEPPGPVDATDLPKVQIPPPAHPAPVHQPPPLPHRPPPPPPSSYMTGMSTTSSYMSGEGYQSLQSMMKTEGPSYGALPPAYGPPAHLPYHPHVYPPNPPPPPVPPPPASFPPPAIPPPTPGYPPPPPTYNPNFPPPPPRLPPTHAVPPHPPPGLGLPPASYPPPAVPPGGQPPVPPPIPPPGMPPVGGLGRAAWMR
Test: Radiometric protein kinase assay (33PanQinase Activity Assay), CDK12
Assay type: biochemical
Conditions: Table 2; CDK12 kinase activity; read-out: Biochemical Potency IC50

{"COMPOUND": "Cc1cccc2nc(CNc3cc(NC[C@H]4CCNC[C@@H]4O)nc4c(C5CC5)cnn34)cn12 [H-APPAMP-025]", "UNIT SPEC": "µM", "IC50": 0.036}
{"COMPOUND": "CC(C)c1cnn2c(NCc3nc4cc(C5CC5)ccn4n3)cc(NC[C@H]3CCNC[C@@H]3O)nc12 [H-APPAMP-044]", "UNIT SPEC": "µM", "IC50": 0.04}
{"COMPOUND": "Cc1cc(C)n2cc(CNc3cc(NC[C@H]4CCNC[C@@H]4O)nc4c(C(C)C)cnn34)nc2n1 [H-APPAMP-043]", "UNIT SPEC": "µM", "IC50": 0.021}
{"COMPOUND": "O[C@H]1CNCC[C@@H]1CNc1cc(NCc2cn3ccc(-c4ccccc4)cc3n2)n2ncc(C3CC3)c2n1 [H-APPAMP-045]", "UNIT SPEC": "µM", "IC50": 0.018}
{"COMPOUND": "Cc1cccn2cc(CNc3cc(NC[C@H]4CCNC[C@@H]4O)nc4c(C(C)C)cnn34)nc12 [H-APPAMP-004]", "UNIT SPEC": "µM", "IC50": 0.055}

* * *

Target: Human CDK12 wt/CycK (Homo sapiens (Human))
Assay: Radiometric protein kinase assay (33PanQinase Activity Assay), CDK12
Assay type: biochemical
Settings: Table 1; ATP 0.3 μM; read-out: CDK12 IC50
pIC50: −log10 of the molar value.
Overview of reported pIC50 across a group of compounds:
ASSAY ENDPOINT: pIC50

{"COMPOUND": "CC(C)c1cnn2c(NCc3ccncc3)cc(NC[C@H]3CCNC[C@@H]3O)nc12 [REF-002, reference compound]", "ASSAY SYSTEM": "Human CDK12 wt/CycK (Homo sapiens (Human))", "OBSERVED RESULT": 6.60}
{"COMPOUND": "Cc1cc(C)n2cc(CNc3cc(NC[C@H]4CCNC[C@@H]4O)nc4c(C5CC5)cnn34)nc2c1", "ASSAY SYSTEM": "Human CDK12 wt/CycK (Homo sapiens (Human))", "OBSERVED RESULT": 7.35}
{"COMPOUND": "O[C@H]1CNCC[C@@H]1CNc1cc(NCc2cn3ccc(C(F)(F)F)cc3n2)n2ncc(C3CC3)c2n1", "ASSAY SYSTEM": "Human CDK12 wt/CycK (Homo sapiens (Human))", "OBSERVED RESULT": 7.36}
{"COMPOUND": "CC(C)c1cnn2c(NCc3nc4ccccn4c3C3CC3)cc(NC[C@H]3CCNC[C@@H]3O)nc12", "ASSAY SYSTEM": "Human CDK12 wt/CycK (Homo sapiens (Human))", "OBSERVED RESULT": 7.03}
{"COMPOUND": "Cc1c(CNc2cc(NC[C@H]3CCNC[C@@H]3O)nc3c(C(C)C)cnn23)nc2ccccn12", "ASSAY SYSTEM": "Human CDK12 wt/CycK (Homo sapiens (Human))", "OBSERVED RESULT": 7.20}
{"COMPOUND": "Cc1ccn2c(CNc3cc(NC[C@H]4CCNC[C@@H]4O)nc4c(C(C)C)cnn34)c(C)nc2c1", "ASSAY SYSTEM": "Human CDK12 wt/CycK (Homo sapiens (Human))", "OBSERVED RESULT": 6.56}

* * *

Molecular target: Human CDK12 wt/CycK (Homo sapiens (Human), UniProt Q9NYV4)
Assay: Radiometric protein kinase assay (33PanQinase Activity Assay), CDK12
Assay type: biochemical
Settings: Table 1; ratio greater than 1 indicated selectivity for CDK12
Examples of compounds with documented CDK7/CDK12 follow.

{"TEST SMILES": "CC(C)c1cnn2c(NCc3ccc4ccccc4n3)cc(NC[C@H]3CCNC[C@@H]3O)nc12", "CDK7/CDK12": 0.3}
{"TEST SMILES": "CC(C)c1cnn2c(NCc3nc4ccccn4c3C3CC3)cc(NC[C@H]3CCNC[C@@H]3O)nc12", "CDK7/CDK12": 3.0}
{"TEST SMILES": "CCc1cnn2c(NCc3cn4c(C(F)(F)F)cccc4n3)cc(NC[C@H]3CCNC[C@@H]3O)nc12", "CDK7/CDK12": 0.9}
{"TEST SMILES": "Cc1ccn2c(CNc3cc(NC[C@H]4CCNC[C@@H]4O)nc4c(C(C)C)cnn34)c(C)nc2c1", "CDK7/CDK12": 0.01}
{"TEST SMILES": "CC(C)c1cnn2c(NCc3nc4ccccn4c3C(F)(F)F)cc(NC[C@H]3CCNC[C@@H]3O)nc12", "CDK7/CDK12": 0.1}
{"TEST SMILES": "CC(C)c1cnn2c(NCc3nc4cc(C5CC5)ccn4n3)cc(NC[C@H]3CCNC[C@@H]3O)nc12", "CDK7/CDK12": 6.7}
{"TEST SMILES": "O[C@H]1CNCC[C@@H]1CNc1cc(NCc2cn3c(C4CC4)cccc3n2)n2ncc(C3CC3)c2n1", "CDK7/CDK12": 3.7}
{"TEST SMILES": "COc1cccc2nc(CNc3cc(NC[C@H]4CCNC[C@@H]4O)nc4c(C5CC5)cnn34)cn12", "CDK7/CDK12": 4.5}
{"TEST SMILES": "CC(C)c1cnn2c(NCc3nc4ccccc4[nH]3)cc(NC[C@H]3CCNC[C@@H]3O)nc12", "CDK7/CDK12": 5.28}
{"TEST SMILES": "CC(C)c1cnn2c(NCc3cn4cccc(C5CC5)c4n3)cc(NC[C@H]3CCNC[C@@H]3O)nc12", "CDK7/CDK12": 3.2}
{"TEST SMILES": "Cc1cccn2cc(CNc3cc(NC[C@H]4CCNC[C@@H]4O)nc4c(C5CCC5)cnn34)nc12", "CDK7/CDK12": 3.0}

Data provenance is patent US12473303B2.
